Listed here: items and their measured EC50.
# studySystem: human GcgR (Homo sapiens, UniProt P47871)
# Sequence (P47871 26-477): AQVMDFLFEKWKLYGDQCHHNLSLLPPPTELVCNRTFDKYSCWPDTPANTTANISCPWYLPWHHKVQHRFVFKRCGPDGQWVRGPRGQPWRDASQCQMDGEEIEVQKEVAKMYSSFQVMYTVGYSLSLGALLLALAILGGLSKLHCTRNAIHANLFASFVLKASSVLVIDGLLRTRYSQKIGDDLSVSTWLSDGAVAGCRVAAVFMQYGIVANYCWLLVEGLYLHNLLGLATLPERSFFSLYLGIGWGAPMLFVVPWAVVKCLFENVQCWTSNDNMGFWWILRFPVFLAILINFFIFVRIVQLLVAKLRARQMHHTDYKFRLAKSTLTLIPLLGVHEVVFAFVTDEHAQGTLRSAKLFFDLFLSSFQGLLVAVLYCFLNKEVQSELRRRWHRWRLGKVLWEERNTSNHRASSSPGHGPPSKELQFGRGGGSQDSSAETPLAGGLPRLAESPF
# method: Functional cAMP activity in the presence of 1% HSA
# Assay type: cell-based
# runConditions: read-out: cAMP Rel EC50, hGcgR
Starred links: 1 amine or outer side, 2 acyl side, 3 side chain; linkers in the order of their positions; H or OH if unused. Non-standard residues stand in square brackets, D forms with d. Groups on a side chain read outwards from the residue. No end group written: not given here. *: point of attachment. C20 diacid = O=C(O)CCCCCCCCCCCCCCCCCCC(=O)*; C18 diacid = O=C(O)CCCCCCCCCCCCCCCCC(=O)*; αMePhe(2-F) = C[C@](N)(Cc1ccccc1F)C(=O)O; γGlu = O=C(O)[C@H](CCC(=O)[*:2])N[*:1]; αMe4Pal = C[C@](N)(Cc1ccncc1)C(=O)O; αMeY = C[C@](N)(Cc1ccc(O)cc1)C(=O)O; 4Pal = N[C@@H](Cc1ccncc1)C(=O)O; αMeL = CC(C)C[C@](C)(N)C(=O)O; αMeS = C[C@](N)(CO)C(=O)O; Orn = NCCC[C@H](N)C(=O)O; AEEA = NCCOCCOCC(=O)O; Aib = CC(C)(N)C(=O)O

substance	EC50 / nM
H-Y[Aib]QGTFTSDFS[Orn][αMeL]LDKK([γGlu-AEEA-γGlu-C18 diacid])AQ[Aib]AFIEYLLE[Aib]GPSSGAPPPSGS-NH2 [Example 193]	1120
Y[Aib]QGT[αMePhe(2-F)]TSD[4Pal][αMeS]I[αMeL]LD[Orn]K([AEEA-γGlu-C18 diacid])AA[Aib]EFI[dE][αMeY]LIEGGPSSGAPPPSGGGE-NH2 [Example 745]	266
H-Y[Aib]QGT[αMePhe(2-F)]TSD[4Pal][αMeS]I[αMeL]LD[Orn]K([AEEA-γGlu-C18 diacid])AQ[αMe4Pal]EFI[dE][αMeY]LIEGGPSSGAPPPSGSEE-NH2 [Example 713]	180
H-Y[Aib]QGT[αMePhe(2-F)]TSD[4Pal][αMeS]I[αMeL]LD[Orn]K([AEEA-γGlu-γGlu-C18 diacid])AQ[αMe4Pal]EFI[dE][αMeY]LIEGGPSSGEPPPSGSE-NH2 [Example 1179]	197
H-Y[Aib]QGT[αMePhe(2-F)]TSD[4Pal][αMeS]I[αMeL]LD[Orn]K([γGlu-γGlu-C18 diacid])AA[Aib]EFI[dE][αMeY]LVEGGPSSGEPPPSGS-NH2 [Example 695]	164
H-Y[Aib]QGTFTSDYSI[αMeL]LDKQAAK([AEEA-AEEA-γGlu-C20 diacid])QFVEWLIAGGPSSGEPPPAEG-NH2 [Example 332]	3340
H-Y[Aib]QGT[αMePhe(2-F)]TSD[4Pal][αMeS]I[αMeL]LD[Orn]K([AEEA-γGlu-C18 diacid])AQ[αMe4Pal]EFI[dE][αMeY]LIEGGPSSGAPPPTGE-NH2 [Example 1142]	203
H-Y[Aib]QGTFTSD[4Pal]SQ[αMeL]LDKK([γGlu-γGlu-C18 diacid])AQ[Aib]AFIE[αMeY]LLEGGPSSGAPPPSGS-NH2 [Example 938]	2830
H-Y[Aib]QGT[αMePhe(2-F)]TSD[4Pal][αMeS]I[αMeL]LD[Orn]K([γGlu-γGlu-C18 diacid])AQ[αMe4Pal]EFI[dE][αMeY]LIEGGPSSGEPPPSGSE-NH2 [Example 716]	100
Y[Aib]QGT[αMePhe(2-F)]TSD[4Pal]SI[αMeL]LD[Orn]K([AEEA-γGlu-C18 diacid])AQ[αMe4Pal][Orn]FI[dE][αMeY]LIEGGPSSGEPPPEGT[dE]-NH2 [Example 691]	308
H-Y[Aib]QGT[αMePhe(2-F)]TSDYSKILDKIAQK([AEEA-γGlu-C20 diacid])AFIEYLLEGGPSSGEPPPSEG-NH2 [Example 311]	2500
